Give measured pKi for each item. Keep answers brief.
# TEST_SYSTEM: rNPFF1 (Rattus norvegicus)
# Construct: expressed in transfected cells
# PROCEDURE_SUMMARY: Binding affinity at cloned recombinant rat NPFF1 receptor
// field semantics: pKi = negative decimal log of concentration (mol/L)

Ask: Could you share which pKi value was measured for `Cc1nc(NC(=N)N)nc2ccc(Cc3ccccc3)cc12` ?
Reply: 6.43

Ask: Moving on to the next compound: `Cc1nc(NC(=N)N)nc2ccc(C3CCCCC3)cc12`
Reply: 6.04

Ask: Also need `CCc1ccc2nc(NC(=N)N)nc(C)c2c1` , thanks.
Reply: 6.62

Ask: Cool, now `Cc1cc(NC(=N)N)nc2cc(F)ccc12`
Reply: 7.36

###

# TEST_SYSTEM: rNPFF1 (Rattus norvegicus, UniProt Q9EP86)
# Construct: expressed in transfected cells
# Sequence (Q9EP86 whole entry): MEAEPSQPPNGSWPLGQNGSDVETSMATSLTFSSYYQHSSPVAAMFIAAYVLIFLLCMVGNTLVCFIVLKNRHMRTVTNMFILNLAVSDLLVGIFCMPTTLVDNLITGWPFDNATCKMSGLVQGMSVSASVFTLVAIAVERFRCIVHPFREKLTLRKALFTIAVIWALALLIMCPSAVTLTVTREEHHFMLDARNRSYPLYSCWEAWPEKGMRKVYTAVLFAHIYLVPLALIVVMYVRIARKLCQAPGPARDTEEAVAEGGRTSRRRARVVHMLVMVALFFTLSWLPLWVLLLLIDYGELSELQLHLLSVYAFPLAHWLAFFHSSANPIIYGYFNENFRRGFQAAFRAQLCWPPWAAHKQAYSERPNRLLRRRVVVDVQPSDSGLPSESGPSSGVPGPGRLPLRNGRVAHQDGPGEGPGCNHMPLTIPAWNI
# PROCEDURE_SUMMARY: Functional assay (agonist potency, intrinsic activity) at cloned rat NPFF1 receptor
# Assay type: cell-based
# MEASUREMENT_CONTEXT: percent of maximum response elicited by neuropeptide FF; rat NPFF1
READOUT_NAME: rNPFF1 IA (intrinsic activity)

CCCCCc1ccc2nc(NC(=N)N)cc(C)c2c1
41% NPFF
Cc1nc(NC(=N)N)nc2ccc(OC(F)(F)F)cc12
Inactive
Cc1nc(NC(=N)N)nc2cc(C(C)O)ccc12 (stereo not shown)
Inactive
Cc1nc(NC(=N)N)nc2cc(C(C)(C)C)ccc12
19% NPFF
Cc1ccc(Oc2ccc3nc(NC(=N)N)nc(C)c3c2)cc1
Inactive

Ask: Any idea what its rNPFF1 IA (intrinsic activity) is? The molecule is `CCc1ccc2nc(NC(=N)N)cc(C)c2c1`
Reply: Inactive

###

Provide the reported Ki of each item.
# TEST_SYSTEM: hNPFF1 (Homo sapiens)
# Sequence (Q9GZQ6 whole entry): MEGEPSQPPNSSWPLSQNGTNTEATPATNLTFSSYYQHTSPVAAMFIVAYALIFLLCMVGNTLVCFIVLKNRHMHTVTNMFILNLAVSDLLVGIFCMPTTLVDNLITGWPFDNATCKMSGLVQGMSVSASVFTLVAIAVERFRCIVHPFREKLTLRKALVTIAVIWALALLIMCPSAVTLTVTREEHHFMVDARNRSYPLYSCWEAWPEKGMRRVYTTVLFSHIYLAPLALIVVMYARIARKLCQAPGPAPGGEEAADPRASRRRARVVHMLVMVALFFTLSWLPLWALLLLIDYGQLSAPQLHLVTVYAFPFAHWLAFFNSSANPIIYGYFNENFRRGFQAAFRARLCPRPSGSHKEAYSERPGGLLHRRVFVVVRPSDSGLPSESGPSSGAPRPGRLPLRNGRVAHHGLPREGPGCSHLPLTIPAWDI
# PROCEDURE_SUMMARY: Binding affinity at cloned recombinant human NPFF1 receptor
Return type: number; implicit unit µM.

Ask: Entry `Cc1cc(NC(=N)N)nc2ccc(-c3ccccc3)cc12` has what Ki?
Reply: 0.207

Ask: Try this molecule too: `Cc1nc(NC(=N)N)nc2cc(-c3ccccc3)ccc12`
Reply: 0.228

Ask: Same for `Cc1cc(NC(=N)N)nc2ccccc12`
Reply: 0.023

Ask: Follow-up item: `Cc1nc(NC(=N)N)nc2ccccc12`
Reply: 0.24

###

# TEST_SYSTEM: rNPFF2 (Rattus norvegicus, UniProt Q9EQD2)
# Construct: expressed in transfected cells
# Sequence (Q9EQD2 whole entry): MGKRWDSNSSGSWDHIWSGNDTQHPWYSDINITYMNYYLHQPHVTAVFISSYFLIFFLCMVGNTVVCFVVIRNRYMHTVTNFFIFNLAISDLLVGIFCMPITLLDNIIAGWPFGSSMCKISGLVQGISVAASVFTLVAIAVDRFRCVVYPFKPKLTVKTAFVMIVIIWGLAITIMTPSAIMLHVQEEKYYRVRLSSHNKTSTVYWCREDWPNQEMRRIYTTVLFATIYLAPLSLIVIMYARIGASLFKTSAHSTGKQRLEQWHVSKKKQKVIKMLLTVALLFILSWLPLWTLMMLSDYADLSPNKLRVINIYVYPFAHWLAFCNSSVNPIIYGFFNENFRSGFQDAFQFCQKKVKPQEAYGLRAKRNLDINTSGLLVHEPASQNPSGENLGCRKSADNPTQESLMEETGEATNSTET
# PROCEDURE_SUMMARY: Functional assay (agonist potency, intrinsic activity) at cloned rat NPFF2 receptor
# Type: cell-based
# MEASUREMENT_CONTEXT: recombinant rat NPFF2
Answer each item with its documented EC50.
The figure you give is taken to be in nM; do not add the unit.

Ask: Look up EC50: `Cc1nc(NC(=N)N)nc2cc(OC(C)C)ccc12`
Reply: 3160

Ask: Same read-out for `Cc1cc(C)c2c(C)cc(NC(=N)N)nc2c1` ?
Reply: 411

Ask: Entry to check: `Cc1nc(NC(=N)N)nc2cc(OCc3ccccc3)ccc12`
Reply: 1080

###

Kindly supply the reported rNPFF2 IA (intrinsic activity) values for the records listed here.
# TEST_SYSTEM: rNPFF2 (Rattus norvegicus)
# Construct: expressed in transfected cells
# PROCEDURE_SUMMARY: Functional assay (agonist potency, intrinsic activity) at cloned rat NPFF2 receptor
# Format: cell-based
# MEASUREMENT_CONTEXT: percent of maximum response elicited by neuropeptide FF; rat NPFF2
Kindly answer with a numeric value in % NPFF, unit omitted.

Ask: Recorded rNPFF2 IA (intrinsic activity) of `Cc1cc(C)c2c(C)cc(NC(=N)N)nc2c1` , please.
Reply: 65

Ask: For `CCc1ccc2c(C)nc(NC(=N)N)nc2c1` then?
Reply: 90

Ask: Can you handle `COc1ccc2nc(NC(=N)N)cc(C)c2c1` next?
Reply: 65

Ask: Okay, and `Cc1nc(NC(=N)N)nc2ccc(OCCCCCOc3ccccc3)cc12` ?
Reply: 21

Ask: For `CCCCc1ccc2nc(NC(=N)N)nc(C)c2c1` then?
Reply: 101

Ask: Same question, `Cc1nc(NC(=N)N)nc2cc(Br)ccc12` this time
Reply: 47

Ask: Consider next the compound `CCCCCCc1ccc2nc(NC(=N)N)cc(C)c2c1` in the same way.
Reply: 57

Ask: # iterate: `Cc1nc(NC(=N)N)nc2cc3c(cc12)C=CCC3`
Reply: 71

Ask: // same read-out, input: `Cc1ccc(Oc2ccc3nc(NC(=N)N)nc(C)c3c2)cc1`
Reply: 51
